- assay procedure: Drug level in rat brain at 10 mg/kg, po after 6 hrs
- Type: ADME, organism-based
- Set-up: dose 10 mg/kg, route oral
- study conditions: read-out: Drug uptake
property label: concentration at 6 h (ng/g)
Numbers only; they are read as ng/g.

Worked cases, concentration at 6 h given:
                         compound_structure        property_label  meas_value
0  COc1cc(/C=C2\CCCN3C2=NOC[C@@H]3c2cc(F)cc(Cl)c2)ccc1-n1cnc(C)c1  concentration at 6 h        1340
1  COc1cc(/C=C2\CCCN3C[C@H](c4cc(F)c(F)c(F)c4)ON=C23)ccc1-n1cnc(C)c1  concentration at 6 h        1880
2  COc1cc(/C=C2\CCCN3C2=NOC[C@@H]3c2ccccc2)ccc1-n1cnc(C)c1  concentration at 6 h         539
3  COc1cc(/C=C2\CCCN3C2=NOC[C@@H]3c2ccc(F)cc2)ccc1-n1cnc(C)c1  concentration at 6 h        2850
4  COc1cc(/C=C2\CCCN3C2=NOC[C@@H]3c2cc(F)c(F)c(F)c2)ccc1-n1cnc(C)c1  concentration at 6 h        2910

Next compound, concentration at 6 h to be filled in.
I'd like to know its concentration at 6 h. The compound in question is COc1cc(/C=C2\CCCN3C2=NOC[C@@H]3c2cc(F)c(OC)c(F)c2)ccc1-n1cnc(C)c1 268

* * *

- tested system: Gamma-secretase
- assay procedure: Modulation of gamma-secretase expressed in HEK293 cells co-expressing APPsw-lon assessed as reduction of amyloid-beta-42 level by sandwich immunoassay
Each entry below carries its reported pIC50.
By convention, pIC50 is the negative base-10 log of a molar concentration.

Worked cases, pIC50 given:
                                   molecule  meas_value
0  COc1cc(/C=C2\CCCN3C2=NOCC32CCOc3ccc(F)cc32)ccc1-n1cnc(C)c1 (racemic)        6.40
1  COc1cc(/C=C2\CCCN3CC(c4nccn4C)ON=C23)ccc1-n1cnc(C)c1 (racemic)        5.17
2  COc1cc(/C=C2\CCCN3CC(COc4ccccc4)ON=C23)ccc1-n1cnc(C)c1 (racemic)        6.85

Next molecule, pIC50 to be filled in.
I'd like to know its pIC50. The molecule in question is COc1cc(/C=C2\CCCN3C2=NOC[C@@H]3c2cc(F)c(F)c(F)c2)ccc1-n1cnc(C)c1 7.48

* * *

Each entry below carries its reported IC50.
- tested system: Gamma-secretase
- assay procedure: Modulation of gamma-secretase expressed in HEK293 cells co-expressing APPsw-lon assessed as reduction of amyloid-beta-42 level by sandwich immunoassay
Numbers only; they are read as µM.

Worked cases, IC50 given:
>>> df
                                   molecule  meas_value
0  COc1cc(/C=C2\CCCN3CC(c4cnccn4)ON=C23)ccc1-n1cnc(C)c1 (racemic)           9
1  COc1cc(/C=C2\CCCN3C[C@H](c4cc(F)c(F)c(F)c4)ON=C23)ccc1-n1cnc(C)c1       0.048
2  COc1cc(/C=C2\CCCN3CC(Cc4ccccc4)ON=C23)ccc1-n1cnc(C)c1 (racemic)       0.083

Next molecule, IC50 to be filled in.
I'd like to know its IC50. The molecule in question is COc1cc(/C=C2\CCCN3C2=NOC[C@@H]3CO)ccc1-n1cnc(C)c1 3.3

* * *

- assay procedure: Drug level in rat brain at 10 mg/kg, po after 3 hrs
- Assay type: ADME, organism-based
- Set-up: dose 10 mg/kg, route oral
- study conditions: read-out: Drug uptake
property label: concentration at 3 h (µM)
Numbers only; they are read as µM.

>>> df
                         compound_structure        property_label  meas_value
0  COc1cc(/C=C2\CCCN3C2=NOC[C@@H]3c2ccccc2)ccc1-n1cnc(C)c1  concentration at 3 h         2.8

Next compound, concentration at 3 h to be filled in.
I'd like to know its concentration at 3 h. The compound in question is COc1cc(/C=C2\CCCN3C2=NOC[C@@H]3c2ccc(F)cc2)ccc1-n1cnc(C)c1 7.7

* * *

- tested system: Gamma-secretase (Homo sapiens) (UniProt Q96BI3+Q9NZ42+Q8WW43+P49768+Q92542+P49810)
- assay procedure: Modulation of gamma-secretase expressed in HEK293 cells co-expressing APPsw-lon assessed as reduction of total amyloid beta/amyloid-beta-42 ratio by sandwich immunoassay
- Format: cell-based
So basically, the class depends on measured Ratio, and the ranges are lo (below 20), mid (20 to below 300), hi (300 or more)

                                   compound                             tested_system  class_label
0  COc1cc(/C=C2\CCCN3C2=NOC[C@@H]3CC(C)C)ccc1-n1cnc(C)c1  Gamma-secretase (Homo sapiens) (UniProt Q96BI3+Q9NZ42+Q8WW43+P49768+Q92542+P49810)          mid
1  COc1cc(/C=C2\CCCN3C(=O)C(c4cc(F)cc(F)c4)ON=C23)ccc1-n1cnc(C)c1 (racemic)  Gamma-secretase (Homo sapiens) (UniProt Q96BI3+Q9NZ42+Q8WW43+P49768+Q92542+P49810)           lo
2  COc1cc(/C=C2\CCCN3C2=NOCC3(C)c2ccc(F)cc2)ccc1-n1cnc(C)c1 (racemic)  Gamma-secretase (Homo sapiens) (UniProt Q96BI3+Q9NZ42+Q8WW43+P49768+Q92542+P49810)          mid
3  COc1cc(/C=C2\CCCN3C2=NOC[C@@H]3C(C)(C)C)ccc1-n1cnc(C)c1  Gamma-secretase (Homo sapiens) (UniProt Q96BI3+Q9NZ42+Q8WW43+P49768+Q92542+P49810)          mid
4  COc1cc(/C=C2\O[C@H](C)CN3C2=NOC[C@@H]3c2cc(F)c(F)c(F)c2)ccc1-n1cnc(C)c1  Gamma-secretase (Homo sapiens) (UniProt Q96BI3+Q9NZ42+Q8WW43+P49768+Q92542+P49810)           hi
5  COc1cc(/C=C2\CCCN3C2=NOC[C@@H]3CO)ccc1-n1cnc(C)c1  Gamma-secretase (Homo sapiens) (UniProt Q96BI3+Q9NZ42+Q8WW43+P49768+Q92542+P49810)           lo
6  COc1cc(/C=C2\CCCN3C[C@H](c4cc(F)c(F)c(F)c4)ON=C23)ccc1-n1cnc(C)c1  Gamma-secretase (Homo sapiens) (UniProt Q96BI3+Q9NZ42+Q8WW43+P49768+Q92542+P49810)           hi
7  COc1cc(/C=C2\CCCN3CCON=C23)ccc1-n1cnc(C)c1  Gamma-secretase (Homo sapiens) (UniProt Q96BI3+Q9NZ42+Q8WW43+P49768+Q92542+P49810)           lo

From here, focus on the item given below.
Where would COc1cc(/C=C2\O[C@H](C)CN3C2=NOC[C@@H]3c2cc(F)cc(F)c2)ccc1-n1cnc(C)c1 land among the classes by reported Ratio? hi

* * *

Each entry below carries its reported Ratio.
- tested system: Gamma-secretase (Homo sapiens) (UniProt Q96BI3+Q9NZ42+Q8WW43+P49768+Q92542+P49810)
- assay procedure: Modulation of gamma-secretase expressed in HEK293 cells co-expressing APPsw-lon assessed as reduction of total amyloid beta/amyloid-beta-42 ratio by sandwich immunoassay
- Assay type: cell-based
Keep the answer to the number alone.

In [3]: df
Out[3]:
                                   compound  property_label  meas_value
0  COc1cc(/C=C2\CCCN3C2=NOC[C@@H]3COCc2ccccc2)ccc1-n1cnc(C)c1           Ratio         120
1  COc1cc(/C=C2\CCCN3CC(c4ccccc4)ON=C23)ccc1-n1cnc(C)c1 (racemic)           Ratio          91
2  COc1cc(/C=C2\CCCN3C2=NOCC3C(O)c2ccc(Cl)cc2)ccc1-n1cnc(C)c1 (stereo unspecified)           Ratio          49

Next compound, Ratio to be filled in.
I'd like to know its Ratio. The compound in question is COc1cc(/C=C2\CCCN3C2=NOC[C@@H]3CC(=O)N2CCCCC2)ccc1-n1cnc(C)c1 13

* * *

- assay procedure: Half life in rat
- Type: ADME, organism-based
- study conditions: in vivo
property label: half-life (h)
Numbers only; they are read as h.

I'd like to know its half-life. The compound in question is COc1cc(/C=C2\CCCN3C2=NOC[C@@H]3c2cc(F)c(F)c(F)c2)ccc1-n1cnc(C)c1 3.5
